Cited source: ChEMBL document CHEMBL3885861

# Species on record: Rattus norvegicus
# assay.text: Open TG-GATES - Regimen: Single
# Format: toxicity, organism-based, Sprague-Dawley
# Design: regimen Single, gender Male, age 6 weeks
# measurement.context: in vivo, po, 0 mg/kg, 24 h, tissue Plasma, route gavage, dose level Control
recorded.metric: BUN

Example results:
{"columns": ["compound", "recorded.metric", "result"],
 "data": [
  ["C#C[C@]1(O)CC[C@H]2[C@@H]3CCC4=Cc5oncc5C[C@]4(C)[C@H]3CC[C@@]21C [DANAZOL]", "BUN", "18.6 mg/dL"],
  ["CCOC(=O)[C@H](CCc1ccccc1)N[C@@H](C)C(=O)N1CCC[C@H]1C(=O)O", "BUN", "18 mg/dL"],
  ["Cc1cccc(Nc2ccccc2C(=O)O)c1C [MEFENAMIC ACID]", "BUN", "13.6 mg/dL"],
  ["CC(CN1c2ccccc2Sc2ccccc21)N(C)C (stereo not given) [PROMETHAZINE]", "BUN", "15.8 mg/dL"],
  ["O=[N+]([O-])c1ccc2c(c1)Cc1ccccc1-2 [2-NITROFLUORENE]", "BUN", "16.6 mg/dL"]
]}

Provide reported BUN for each item, in the same order as listed.
1. CN1C(C(=O)Nc2ccccn2)=C(O)c2sc(Cl)cc2S1(=O)=O [LORNOXICAM]
2. CC(=O)Nc1nnc(S(N)(=O)=O)s1 [ACETAZOLAMIDE]

**Result**
14.8 mg/dL
15.8 mg/dL

Provide reported BUN for each item, in the same order as listed.
1. CN(C)[C@@H]1C(O)=C(C(N)=O)C(=O)[C@@]2(O)C(O)=C3C(=O)c4c(O)cccc4[C@@](C)(O)[C@H]3C[C@@H]12 [TETRACYCLINE]
2. Clc1c(Cl)c(Cl)c(Cl)c(Cl)c1Cl [PERCHLOROBENZENE]
3. C1CCC(C(CC2CCCCN2)C2CCCCC2)CC1 (stereo not given) [PERHEXILINE]

**Result**
17.4 mg/dL
13.6 mg/dL
16.8 mg/dL

* * *

# Species on record: Rattus norvegicus
# assay.text: Open TG-GATES - Regimen: Single
# Type: toxicity, organism-based, Sprague-Dawley
# Design: regimen Single, gender Male, age 6 weeks
# measurement.context: in vivo, po, 0 mg/kg, 24 h, tissue Plasma, route gavage, dose level Control
Provide the recorded gamma-GTP for the entries that follow.

Example results:
{"columns": ["molecule", "gamma-GTP"],
 "data": [
  ["CCOC(=O)[C@H](CCc1ccccc1)N[C@@H](C)C(=O)N1CCC[C@H]1C(=O)O", "1.2 IU/L"],
  ["CN(C)[C@@H]1C(O)=C(C(N)=O)C(=O)[C@@]2(O)C(O)=C3C(=O)c4c(O)cccc4[C@@](C)(O)[C@H]3C[C@@H]12", "0.8 IU/L"],
  ["C#C[C@]1(O)CC[C@H]2[C@@H]3CCC4=Cc5oncc5C[C@]4(C)[C@H]3CC[C@@]21C", "2.2 IU/L"],
  ["COc1cc([C@@H]2c3cc4c(cc3[C@@H](O[C@@H]3O[C@@H]5CO[C@@H](C)O[C@H]5[C@H](O)[C@H]3O)[C@H]3COC(=O)[C@H]23)OCO4)cc(OC)c1O [ETOPOSIDE]", "1.6 IU/L"]
]}

Provide reported gamma-GTP for each item, in the same order as listed.
1. O=[N+]([O-])c1ccc2c(c1)Cc1ccccc1-2
2. CC(=O)Nc1nnc(S(N)(=O)=O)s1 [ACETAZOLAMIDE]
3. Clc1c(Cl)c(Cl)c(Cl)c(Cl)c1Cl
4. Cc1cccc(Nc2ccccc2C(=O)O)c1C

**Result**
["0.7 IU/L", "2.2 IU/L", "1.2 IU/L", "1.4 IU/L"]
